Items are presented alongside their recorded protein stability index.
B1: ZER1 (parent)
chain: KEMARKVIEHCSNFKEENMDTSR

Variants of: B1
assay-notes: protein stability index of a GFP-peptide fusion (GPS, HEK-293T) (PSI 1-6); higher = more stable;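 further: lentivirally expressed fusions sorted by FACS into six bins by GFP to DsRed ratio, PSI derived from sequencing read proportions per bin multiplied by bin number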
assay-conditions: c terminus: native

# annotated cases, reported protein stability index shown
K1F
2.86
K6G
4.21
I8Y
3.88
N18G
4.02
M3I
3.29
F14I
4.35
E9I
3.03
R5A
4.4
C11L
2.59
K6N
3.89

**Q:** Given the entry "N18D" , report its measured protein stability index.
**A:** 3.52

**Q:** Given the entry "E2H" , report its measured protein stability index.
**A:** 3.12

**Q:** Given the entry "H10S" , report its measured protein stability index.
**A:** 3.57

**Q:** Given the entry "T21A" , report its measured protein stability index.
**A:** 4.09

**Q:** Given the entry "S12R" , report its measured protein stability index.
**A:** 3.25

**Q:** Given the entry "E17A" , report its measured protein stability index.
**A:** 2.98

// provenance: the supplement of paper PMC10567573
